Assay Summary: Inhibition of Tel-fused FLT3 (unknown origin) expressed in mouse BA/F3 cells after 48 hrs by luciferase reporter gene assay in absence of recombinant mouse IL3
Known IC50 of a selection of molecules

For orientation, consider the following solved cases.
| Smiles Notation | IC50 |
| --- | --- |
| OC1CCN(c2cc(-c3cnc4ccc(N5CCC[C@@H]5c5cccc(F)c5)nn34)ccn2)CC1 | 4.3 µM |
| O=C(O)CN1CCN(c2cc(-c3cnc4ccc(N5CCC[C@@H]5c5cccc(F)c5)nn34)ccn2)CC1 | 3.3 µM |

Problem: Read off the recorded IC50 for N#Cc1ccc(-c2cnc3ccc(NCc4ccccc4)nn23)cc1
Solution: 0.72 µM

Data provenance is BindingDB's records for doi:10.1021/acsmedchemlett.5b00050.
